Test system: 922993-354-T-J3-PDC complex spheroids, viability, % test/control;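 note: spheroids exposed to the agents for 7 days before readout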
run description: Anticancer human tumor 922993-354-T-J3-PDC patient-derived endometrial carcinoma cell line growth inhibition [CLK]
conditions: second compound 0.316 µM; first compound 0.01 µM; active compounds read low
observation type: viability, T/C (%)
Give the number; % is assumed, so skip it.

[
  {
    "molecule": "COc1c(OCCCN2CCOCC2)ccc2c3n(c(=NC(=O)c4cnc(N)nc4)nc12)CCN3 + CN1CCN(c2cc(C(=O)Nc3cc4cc(-c5cnn(C)c5)ccc4cn3)ccn2)CC1",
    "target of assay": "922993-354-T-J3-PDC complex spheroids, viability, % test/control",
    "unit descriptor": "%",
    "viability, T/C": 47.9
  },
  {
    "molecule": "CCN1CCN(Cc2ccc(Nc3ncc(F)c(-c4cc(F)c5nc(C)n(C(C)C)c5c4)n3)nc2)CC1 + CN1CCN(c2cc(C(=O)Nc3cc4cc(-c5cnn(C)c5)ccc4cn3)ccn2)CC1",
    "target of assay": "922993-354-T-J3-PDC complex spheroids, viability, % test/control",
    "unit descriptor": "%",
    "viability, T/C": 37
  },
  {
    "molecule": "Cn1ncnc1[C@H]1c2n[nH]c(=O)c3cc(F)cc(c23)N[C@@H]1c1ccc(F)cc1 + CNC(=O)c1ccc(Nc2nc(OC3CCCC3)c3c(-c4ccc5nc(C)oc5c4)c[nH]c3n2)c(OC)c1",
    "target of assay": "922993-354-T-J3-PDC complex spheroids, viability, % test/control",
    "unit descriptor": "%",
    "viability, T/C": 73.2
  },
  {
    "molecule": "Cn1ncnc1[C@H]1c2n[nH]c(=O)c3cc(F)cc(c23)N[C@@H]1c1ccc(F)cc1 + CN1CCN(c2cc(C(=O)Nc3cc4cc(-c5cnn(C)c5)ccc4cn3)ccn2)CC1",
    "target of assay": "922993-354-T-J3-PDC complex spheroids, viability, % test/control",
    "unit descriptor": "%",
    "viability, T/C": 32.7
  },
  {
    "molecule": "CCc1c2c(nc3ccc(O)cc13)-c1cc3c(c(=O)n1C2)COC(=O)[C@]3(O)CC + CN1CCN(c2cc(C(=O)Nc3cc4cc(-c5cnn(C)c5)ccc4cn3)ccn2)CC1",
    "target of assay": "922993-354-T-J3-PDC complex spheroids, viability, % test/control",
    "unit descriptor": "%",
    "viability, T/C": 19.2
  },
  {
    "molecule": "COc1c(OCCCN2CCOCC2)ccc2c3n(c(=NC(=O)c4cnc(N)nc4)nc12)CCN3 + CNC(=O)c1ccc(Nc2nc(OC3CCCC3)c3c(-c4ccc5nc(C)oc5c4)c[nH]c3n2)c(OC)c1",
    "target of assay": "922993-354-T-J3-PDC complex spheroids, viability, % test/control",
    "unit descriptor": "%",
    "viability, T/C": 87.9
  }
]

Prompt: Requested field: viability, T/C. Item: CCN1CCN(Cc2ccc(Nc3ncc(F)c(-c4cc(F)c5nc(C)n(C(C)C)c5c4)n3)nc2)CC1 + CNC(=O)c1ccc(Nc2nc(OC3CCCC3)c3c(-c4ccc5nc(C)oc5c4)c[nH]c3n2)c(OC)c1
Completion: 59.2

Prompt: Requested field: viability, T/C. Item: CCc1c2c(nc3ccc(O)cc13)-c1cc3c(c(=O)n1C2)COC(=O)[C@]3(O)CC + CNC(=O)c1ccc(Nc2nc(OC3CCCC3)c3c(-c4ccc5nc(C)oc5c4)c[nH]c3n2)c(OC)c1
Completion: 63.4
